Tested on: Aβ42
assay.details: Screening for γ-secretase-modulating activity, Method 2: Aβ42 Alphalisa on SKNBE2 cell supernatant
Assay type: cell-based
setup.conditions: Method 2, Table 3c, SKNBE2 cells carrying APP 695 wild type, overnight incubation
Experimental: Screening was carried out using SKNBE2 cells carrying the APP 695—wild type, grown in Dulbecco's Modified Eagle's Medium/Nutrient mixture F-12 (DMEM/NUT-mix F-12) (HAM) provided by Invitrogen (cat no. 10371-029) containing 5% Serum/Fe supplemented with 1% non-essential amino acids, 1-glutamine 2 mM, Hepes 15 mM, penicillin 50 U/ml (units/ml) en streptomycin 50 μg/ml. […] Aβtotal and Aβ42 concentrations were quantified in the cell supernatant using the Aphalisa technology (Perkin Elmer). […]
metric.name: IC50 (nM)

See these solved cases before continuing.
| given.smiles | IC50 [nM] |
| --- | --- |
| COc1ccc(F)c(-c2nc3c(Nc4ccc(-n5cnc(C)c5)c(OC)n4)cccc3n2C)c1 | 18 |
| COc1nc(Nc2cccc3c2nc(-c2ccc(F)cc2F)n3C)ccc1-n1cnc(C)c1 | 26 |
| COc1cccc(-c2nc3c(Nc4ccc(-n5cnc(C)n5)cc4)cccc3n2C(C)C)c1 | 79 |

A: COc1cc(Nc2cc(C3CC3)nc3c2nc(-c2ccc(F)cc2)n3C)ccc1-n1cnc(C)n1
B: CCn1c(CCC(F)(F)F)nc2c(Nc3ccc(-n4cnc(C)c4)c(OC)c3)cccc21
C: Cc1cn(-c2ccc(Nc3cccc4c3nc(-c3ccc(F)cc3)n4C)cn2)cn1
Ranking field: IC50; order: falling. In your reply, arrange the labels in the requested order.
B, C, A

* * *

System: Aβ42
assay.details: Screening for γ-secretase-modulating activity, Method 2: Aβ42 Alphalisa on SKNBE2 cell supernatant
Format: cell-based
setup.conditions: Method 2, Table 3c, SKNBE2 cells carrying APP 695 wild type, overnight incubation
metric.name: IC50 (nM)

See these solved cases before continuing.
| given.smiles | target.system | metric.name | numeric.result |
| --- | --- | --- | --- |
| Cc1ncn(-c2c(F)cc(Nc3cccc4c3nc(-c3ccc(F)cc3)n4C)cc2F)n1 | Aβ42 | IC50 | 1290 |
| Cc1cn(-c2ccc(Nc3nccc4c3nc(-c3ccc(F)cc3)n4C)cc2F)cn1 | Aβ42 | IC50 | 21 |
| COc1nc(Nc2cccc3c2nc(-c2ccc(N(C)C)cc2)n3C)ccc1-n1cnc(C)c1 | Aβ42 | IC50 | 35 |
| COc1cc(Nc2cccc3c2nc(-c2cccc(Cl)c2)n3C(C)C)ccc1-n1cnc(C)n1 | Aβ42 | IC50 | 19 |
| COc1nc(Nc2cccc3c2nc(-c2cc(C(F)(F)F)ccc2C)n3C)ccc1-n1cnc(C)c1 | Aβ42 | IC50 | 25 |
| Cc1ncn(-c2ccc(Nc3cccc4c3nc(-c3ccc(F)cc3)n4C(C)C)cn2)n1 | Aβ42 | IC50 | 72 |
| COc1cc(Nc2cccc3c2nc(C2CCOCC2)n3C(C)C)ccc1-n1cnc(C)n1 | Aβ42 | IC50 | 9770 |
| COc1nc(Nc2cc(F)cc3c2nc(-c2ccc(F)cc2)n3C)ccc1-n1cnc(C)c1 | Aβ42 | IC50 | 2 |

A: COc1nc(Nc2cccc3c2nc(-c2ccc(F)c(I)c2)n3C)ccc1-n1cnc(C)c1
B: COc1cc(Nc2cccc3c2nc(-c2ccc(F)cc2)n3C(C)(C)C)ccc1-n1cnc(C)n1
C: COc1nc(Nc2cccc3c2nc(-c2ccccc2C(F)(F)F)n3C)ccc1-n1cnc(C)c1
D: COc1cc(Nc2cccc3oc(C4CCN(C(C)=O)CC4)nc23)ccc1-n1cnc(C)c1
Ranking field: IC50; order: falling. In your reply, arrange the labels in the requested order.
D, B, C, A

1: COc1cc(Nc2cccc3c2nc(Oc2ccccc2)n3C)ccc1-n1cnc(C)c1
2: COc1cc(-c2nc3c(Nc4ccc(-n5cnc(C)c5)c(OC)n4)cc(F)cc3n2C)ccc1Cl
IC50 comparison. Which is larger, 1 or 2 ? Returns: label corresponding to the selected item.
1

I: CCOc1cccc(-c2nc3c(Nc4ccc(-n5cnc(C)c5)c(OC)n4)cccc3n2C)c1
II: Cc1ncn(-c2ccc(Nc3cccc4c3nc(-c3ccc(F)cc3)n4C)cc2)n1
Hi! Which is lower in terms of IC50, the first one I or the second one II ? Returns: label corresponding to the selected item.
I
(I: 11 nM, II: 102 nM)
